Target: PilF159-302 WT (Thermus thermophilus, UniProt Q72H73)
Assay: ITC c-di-GMP binding to wild-type GSPII-B domain
Conditions: Tris, 20 °C, pH 8.5
Text: To characterize c-di-GMP binding by PilF159-302, the Q190E and Q218E constructs via isothermal titration calorimetry (ITC) and X-ray crystallography unlabeled c-di-GMP was synthesized using a constitutively active mutant of a diguanylate cyclase from the thermophilic bacterium Thermogata maritima ^[4^4,4^5]. For NMR experiments ^13C,^15N labelled c-di-GMP was synthesized identically using ^13C,^15N labelled GTP as a substrate. […]
pKd: −log10 of the molar value.

{"columns": ["Compound", "pKd"],
 "data": [
  ["Nc1nc2c(ncn2C2OC3COP(=O)(O)OC4C(COP(=O)(O)OC3C2O)OC(n2cnc3c(=O)[nH]c(N)nc32)C4O)c(=O)[nH]1 (stereo not shown)", 8.05]
]}

###

Molecular target: PilF159-302 Q218E (Thermus thermophilus, UniProt Q72H73, Q218E)
Assay: ITC c-di-GMP binding to Q218E mutant, pH series
Conditions: Tris, 20 °C, pH 8.0

{"columns": ["Compound", "Target under test", "Kd"],
 "data": [
  ["Nc1nc2c(ncn2C2OC3COP(=O)(O)OC4C(COP(=O)(O)OC3C2O)OC(n2cnc3c(=O)[nH]c(N)nc32)C4O)c(=O)[nH]1 (stereo not shown)", "PilF159-302 Q218E (Thermus thermophilus, UniProt Q72H73, Q218E)", "432 nM"]
]}

###

Target: PilF159-302 Q218E (Thermus thermophilus, UniProt Q72H73, Q218E)
Assay: ITC c-di-GMP binding to Q218E mutant, pH series
Conditions: Tris, 20 °C, pH 7.5
pKd: −log10 of the molar value.
Parameter measured: pKd

{"columns": ["Molecule", "Result value"],
 "data": [
  ["Nc1nc2c(ncn2C2OC3COP(=O)(O)OC4C(COP(=O)(O)OC3C2O)OC(n2cnc3c(=O)[nH]c(N)nc32)C4O)c(=O)[nH]1 (stereo not shown)", 6.47]
]}

###

Target: PilF159-302 Q190E (Thermus thermophilus, UniProt Q72H73, Q190E)
Test: ITC c-di-GMP binding to Q190E mutant, pH series
Details: Na-Acetate, 20 °C, pH 5.0
pKd: −log10 of the molar value.
Parameter measured: pKd

{"columns": ["Compound", "Target under test", "Result value"],
 "data": [
  ["Nc1nc2c(ncn2C2OC3COP(=O)(O)OC4C(COP(=O)(O)OC3C2O)OC(n2cnc3c(=O)[nH]c(N)nc32)C4O)c(=O)[nH]1 (stereo not shown)", "PilF159-302 Q190E (Thermus thermophilus, UniProt Q72H73, Q190E)", 7.11]
]}

###

Molecular target: PilF159-302 Q218E (Thermus thermophilus, UniProt Q72H73, Q218E)
Test: ITC c-di-GMP binding to Q218E mutant, pH series
Details: Bis-Tris, 20 °C, pH 6.5

{"columns": ["Compound", "Measurement units", "Kd"],
 "data": [
  ["Nc1nc2c(ncn2C2OC3COP(=O)(O)OC4C(COP(=O)(O)OC3C2O)OC(n2cnc3c(=O)[nH]c(N)nc32)C4O)c(=O)[nH]1 (stereo not shown)", "nM", 110]
]}

###

Target: PilF159-302 Q218E (Thermus thermophilus, UniProt Q72H73, Q218E)
Experiment: ITC c-di-GMP binding to Q218E mutant, pH series
Details: Na-Acetate, 20 °C, pH 5.0
Description: To characterize c-di-GMP binding by PilF159-302, the Q190E and Q218E constructs via isothermal titration calorimetry (ITC) and X-ray crystallography unlabeled c-di-GMP was synthesized using a constitutively active mutant of a diguanylate cyclase from the thermophilic bacterium Thermogata maritima ^[4^4,4^5]. For NMR experiments ^13C,^15N labelled c-di-GMP was synthesized identically using ^13C,^15N labelled GTP as a substrate. […]

{"columns": ["Molecule", "Kd, nM"],
 "data": [
  ["Nc1nc2c(ncn2C2OC3COP(=O)(O)OC4C(COP(=O)(O)OC3C2O)OC(n2cnc3c(=O)[nH]c(N)nc32)C4O)c(=O)[nH]1 (stereo not shown) [c-di-GMP]", 36]
]}

###

Molecular target: PilF159-302 Q190E (Thermus thermophilus, UniProt Q72H73, Q190E)
Sequence (Q72H73 159-302 Q190E): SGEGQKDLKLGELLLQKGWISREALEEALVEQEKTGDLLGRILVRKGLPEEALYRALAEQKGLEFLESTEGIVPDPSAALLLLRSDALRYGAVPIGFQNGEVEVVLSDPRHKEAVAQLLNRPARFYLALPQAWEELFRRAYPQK
Experiment: ITC c-di-GMP binding to Q190E mutant, pH series
Conditions: Na-Acetate, 20 °C, pH 4.5

{"columns": ["Compound", "Target under test", "Kd"],
 "data": [
  ["Nc1nc2c(ncn2C2OC3COP(=O)(O)OC4C(COP(=O)(O)OC3C2O)OC(n2cnc3c(=O)[nH]c(N)nc32)C4O)c(=O)[nH]1 (stereo not shown) [c-di-GMP]", "PilF159-302 Q190E (Thermus thermophilus, UniProt Q72H73, Q190E)", "42 nM"]
]}

###

Molecular target: PilF159-302 Q190E (Thermus thermophilus, UniProt Q72H73, Q190E)
Experiment: ITC c-di-GMP binding to Q190E mutant, pH series
Conditions: Na-Acetate, 20 °C, pH 5.5
pKd: −log10 of the molar value.

{"columns": ["Compound", "pKd"],
 "data": [
  ["Nc1nc2c(ncn2C2OC3COP(=O)(O)OC4C(COP(=O)(O)OC3C2O)OC(n2cnc3c(=O)[nH]c(N)nc32)C4O)c(=O)[nH]1 (stereo not shown)", 7.13]
]}

###

Molecular target: PilF159-302 Q190E (Thermus thermophilus, UniProt Q72H73, Q190E)
Sequence (Q72H73 159-302 Q190E): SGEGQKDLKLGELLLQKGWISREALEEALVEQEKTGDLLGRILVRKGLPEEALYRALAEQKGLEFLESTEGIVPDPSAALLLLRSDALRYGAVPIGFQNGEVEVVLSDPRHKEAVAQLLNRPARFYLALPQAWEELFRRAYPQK
Assay: ITC c-di-GMP binding to Q190E mutant, pH series
Conditions: Na-Acetate, 20 °C, pH 6.0, buffer cross measurement, singlet
Parameter measured: Kd (nM)

{"columns": ["Molecule", "Measurement units", "Result value"],
 "data": [
  ["Nc1nc2c(ncn2C2OC3COP(=O)(O)OC4C(COP(=O)(O)OC3C2O)OC(n2cnc3c(=O)[nH]c(N)nc32)C4O)c(=O)[nH]1 (stereo not shown) [c-di-GMP]", "nM", 96]
]}

###

Biological target: PilF159-302 Q218E (Thermus thermophilus, UniProt Q72H73, Q218E)
Experiment: ITC c-di-GMP binding to Q218E mutant, pH series
Details: Bis-Tris, 20 °C, pH 6.0
Parameter measured: Kd (µM)

{"columns": ["Molecule", "Parameter measured", "Result value"],
 "data": [
  ["Nc1nc2c(ncn2C2OC3COP(=O)(O)OC4C(COP(=O)(O)OC3C2O)OC(n2cnc3c(=O)[nH]c(N)nc32)C4O)c(=O)[nH]1 (stereo not shown)", "Kd", 0.064]
]}

###

Biological target: PilF159-302 Q190E (Thermus thermophilus, UniProt Q72H73, Q190E)
Assay: ITC c-di-GMP binding to Q190E mutant, pH series
Conditions: Bis-Tris, 20 °C, pH 7.0
pKd: −log10 of the molar value.

{"columns": ["Molecule", "pKd"],
 "data": [
  ["Nc1nc2c(ncn2C2OC3COP(=O)(O)OC4C(COP(=O)(O)OC3C2O)OC(n2cnc3c(=O)[nH]c(N)nc32)C4O)c(=O)[nH]1 (stereo not shown) [c-di-GMP]", 6.63]
]}

###

Biological target: PilF159-302 Q218E (Thermus thermophilus, UniProt Q72H73, Q218E)
Experiment: ITC c-di-GMP binding to Q218E mutant, pH series
Details: Tris, 20 °C, pH 8.5
pKd: −log10 of the molar value.

{"columns": ["Compound", "pKd"],
 "data": [
  ["Nc1nc2c(ncn2C2OC3COP(=O)(O)OC4C(COP(=O)(O)OC3C2O)OC(n2cnc3c(=O)[nH]c(N)nc32)C4O)c(=O)[nH]1 (stereo not shown)", 6.33]
]}

###

Target: PilF159-302 Q218E (Thermus thermophilus, UniProt Q72H73, Q218E)
Sequence (Q72H73 159-302 Q218E): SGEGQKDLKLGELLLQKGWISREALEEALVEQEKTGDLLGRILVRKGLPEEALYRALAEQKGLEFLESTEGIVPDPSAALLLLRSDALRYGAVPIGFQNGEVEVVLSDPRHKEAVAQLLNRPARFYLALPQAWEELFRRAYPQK
Assay: ITC c-di-GMP binding to Q218E mutant, pH series
Details: Na-Acetate, 20 °C, pH 4.5
Parameter measured: Kd (nM)

{"columns": ["Molecule", "Result value"],
 "data": [
  ["Nc1nc2c(ncn2C2OC3COP(=O)(O)OC4C(COP(=O)(O)OC3C2O)OC(n2cnc3c(=O)[nH]c(N)nc32)C4O)c(=O)[nH]1 (stereo not shown)", 61]
]}
